Quick reference: MFI of the listed items.
measured.target: CD47 on the red cell surface (Homo sapiens (Human), UniProt Q08722 19-323)
assay.procedure: flow cytometry on fixed red cells, antibody 1 µg/mL
Give the quantity in MFI, number only.

Sample answers from the record:
binder	MFI [MFI]
hz3F10-2.2 (antibody, human IgG4 S228P, kappa, V domains shown, humanized 3F10, full-length heavy and light chains) VH: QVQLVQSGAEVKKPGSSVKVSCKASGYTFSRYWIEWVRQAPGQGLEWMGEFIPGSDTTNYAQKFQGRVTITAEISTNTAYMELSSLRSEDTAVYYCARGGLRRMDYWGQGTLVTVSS VL: DIQMTQSPSSLSASVGDRVTITCRASSSVSSTYLHWYQQKPGKAPKLLIYTTSTLASGVPSRFSGSGSGTDFTLTISSLQPEDFATYYCQQFSESTWTFGQGTKLEIKR	5610
hz3F10-1.2 (antibody, human IgG4 S228P, kappa, V domains shown, humanized 3F10, full-length heavy and light chains) VH: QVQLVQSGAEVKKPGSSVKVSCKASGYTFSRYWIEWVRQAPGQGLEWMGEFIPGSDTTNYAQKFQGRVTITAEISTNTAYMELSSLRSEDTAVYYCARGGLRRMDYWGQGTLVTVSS VL: DIQMTQSPSSLSASVGDRVTITCRASSSVSSTYLHWYQQKPGKAPKLLIYTTSTLASGVPSRFSGSGSGTDFTLTISSLQPEDFATYYCQQFSDSTWTFGQGTKLEIKR	6250

Problem: Recorded MFI of hz14A9-2.4 (antibody, human IgG4 S228P, kappa, V domains shown, humanized 14A9, full-length heavy and light chains) VH: QVQLVQSGAEVKKPGASVKVSCKVSGFNIEDDYIEWVRQAPGQGLEWMGRIDPANDKTKYAQKFQGRVTMTGDTSTNTVYMELSSLRSEDTAVYYCTRPGLRRYYSMDYWGQGTLVTVSS VL: DIQMTQSPSSLSASVGDRVTITCKASENVVSYVSWYQQKPGKAPKLLIYGASNRYTGVPSRFIGSGSSTDFTLTISSLQPEDFATYYCGQSYSYPLTFGQGTKLEIKR , please.
Solution: 5240

Problem: # get_value(readout='MFI', item= hz3F10-2.1 (antibody, human IgG4 S228P, kappa, V domains shown, humanized 3F10, full-length heavy and light chains) VH: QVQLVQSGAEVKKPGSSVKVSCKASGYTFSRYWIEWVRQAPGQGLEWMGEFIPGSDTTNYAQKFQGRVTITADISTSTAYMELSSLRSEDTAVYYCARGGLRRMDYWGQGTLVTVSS VL: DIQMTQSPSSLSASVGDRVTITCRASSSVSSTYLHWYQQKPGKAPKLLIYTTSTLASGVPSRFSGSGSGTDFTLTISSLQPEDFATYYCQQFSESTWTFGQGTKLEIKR )
Solution: 8450

Problem: Need MFI, item hz3F10-3.1 (antibody, human IgG4 S228P, kappa, V domains shown, humanized 3F10, full-length heavy and light chains) VH: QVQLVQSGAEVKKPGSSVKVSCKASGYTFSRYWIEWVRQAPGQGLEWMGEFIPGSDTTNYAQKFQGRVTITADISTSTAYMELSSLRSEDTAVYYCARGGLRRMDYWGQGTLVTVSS VL: DIQMTQSPSSLSASVGDRVTITCRASSSVSSTYLHWYQQKPGKAPKLLIYTTSTLASGVPSRFSGSGSGTSYTLTISSLQPEDFATYYCQQFSDSTWTFGQGTKLEIKR
Solution: 6700
